// data source = the supplement of paper PMC13380429

Tested on: Calu-3
Test: cell viability relative to DMSO; higher = less toxic
Conditions: 72 h; 100 nM
This listing pairs compounds with measured cell viability.
measured-metric: cell viability

compound | meas-value
O=[N+]([O-])c1ccc2c(c1)S(=O)(=O)C=C2 [stattic] | 97.7%
CN1CCN(CCCN2c3ccccc3Sc3ccc(S(=O)(=O)N(C)C)cc32)CC1 [thioproperazine] | 105%
NC(=O)N1c2ccccc2C=Cc2ccccc21 [carbamazepine] | 90.3%
COc1cc2c(cc1OC)[C@@]13CCN4CC5=CCO[C@H]6CC(=O)N2[C@H]1[C@H]6[C@H]5C[C@H]43 [brucine] | 91.4%
Nc1nc2c(c(N3CCNCC3)n1)CCC1=C2[C@@H]2CCCC[C@@H]2O1 | 101%

----------
This listing pairs compounds with measured cell viability.
Test system: HepG2
Experiment: cell viability relative to DMSO; higher = less toxic
Details: 72 h; 1000 nM
measured-metric: cell viability (%)

compound | meas-value
CC(=O)c1c(O)cc(C)oc1=O [dehydroacetic-acid] | 96.7
CS(=O)(=O)OC[C@H](O)[C@@H](O)COS(C)(=O)=O [treosulfan] | 108
CN1[C@@H]2CC[C@H]1C[C@@H](OC(=O)c1cc(Cl)cc(Cl)c1)C2 [bemesetron] | 107
CC(N)Cc1ccc(O)cc1 (stereo not given) [hydroxyamphetamine] | 93.7
c1ccc2nc(N3CCNCC3)ccc2c1 [quipazine] | 93.5
Clc1ccc(CO/N=C(\Cn2ccnc2)c2ccc(Cl)cc2Cl)c(Cl)c1 [oxiconazole] | 98.5
CC(C)(C)C(=O)OCOP(=O)(COCCn1cnc2c(N)ncnc21)OCOC(=O)C(C)(C)C [adefovir-dipivoxil] | 49.1
NCCc1ccc(O)c(O)c1 [dopamine] | 115
COCC1(CO)C(=O)C2CCN1CC2 (stereo not given) [APR-246] | 112
Cc1cc(NC(=O)Nc2ccc(N(C)C)cc2)c2cc(F)cc(F)c2n1 | 93.1
COc1ccc(NC(=O)c2ccc(-c3ccc(-c4noc(C)n4)cc3C)cc2)cc1N1CCN(C)CC1 | 103
CN1CCCCC1Cn1cc(C(=O)c2cc([N+](=O)[O-])ccc2I)c2ccccc21 (stereo not given) [AM-1241] | 102
N=C(NCc1ccc(Cl)cc1)SCCCc1c[nH]cn1 [clobenpropit] | 102
N#Cc1ccc(Oc2ccc3c(c2)COB3O)cc1 [crisaborole] | 104
CS(=O)(=O)Oc1ccc2c(NC(N)=O)c(C(=O)c3ccc(Cl)cc3Cl)oc2c1 [lirimilast] | 94.7
CNC(=O)c1ccccc1Sc1ccc2c(/C=C/c3ccccn3)n[nH]c2c1 [axitinib] | 92.2
Cn1cc(-c2ccc3nnc(C(F)(F)c4ccc5ncccc5c4)n3n2)cn1 | 109
O=C(/C=C/c1cccnc1)NCCCCC1CCN(C(=O)c2ccccc2)CC1 [FK-866] | 11.3
COc1ccc(C(=O)N2CCCc3cc(C4=NNC(=O)SC4C)ccc32)cc1OC (stereo not given) | 90.1
CC(C)SC(=N)N [S-isopropylisothiourea] | 94.5

----------
This listing pairs molecules with measured cell viability.
Tested on: Calu-3
Assay: cell viability relative to DMSO; higher = less toxic
Details: 72 h; 1000 nM
measured-metric: cell viability (%)

molecule | meas-value
COc1cc(N2CCC(N(C)C)CC2)ccc1Nc1ncc(Cl)c(Nc2ccccc2P(C)(C)=O)n1 | 51.7
CC(C)SC(=N)N | 97.1
S=P(N1CC1)(N1CC1)N1CC1 | 90.2
O=S(=O)(/N=C/c1c(O)ccc2ccccc12)c1cccs1 | 104
CS(=O)(=O)OC[C@H](O)[C@@H](O)COS(C)(=O)=O | 98.8
C[N+](C)(C)CC[N+]1(C)Cc2c(Cl)c(Cl)c(Cl)c(Cl)c2C1 [chlorisondamine-diiodide] | 89.8
Cc1cnc(Nc2ccc(OCCN3CCCC3)cc2)nc1Nc1cccc(S(=O)(=O)NC(C)(C)C)c1 | 98.5
CCCCCCc1ccc(O)cc1O.Nc1c2ccccc2nc2ccccc12 | 96.4
CC(CCc1ccccc1)NC(C)C(O)c1ccc(O)cc1 (configuration not stated) | 104
Cc1noc(NS(=O)(=O)c2ccc(N)cc2)c1C | 107
O=[N+]([O-])c1ccc2c(c1)S(=O)(=O)C=C2 | 117
CN(CCOc1ccc(NS(C)(=O)=O)cc1)CCc1ccc(NS(C)(=O)=O)cc1 [dofetilide] | 98.6
COc1c(OCCCN2CCOCC2)ccc2c1N=C(NC(=O)c1cnc(N)nc1)N1CCN=C21 | 73.4
O=C(O)/C=C/c1ccc(-c2ccc(O)c(C34CC5CC(CC(C5)C3)C4)c2)cc1 | 56.5
CC1(C)S[C@@H]2[C@H](NC(=O)COc3ccccc3)C(=O)N2[C@H]1C(=O)O | 108
O=C(NCc1cccc(O)c1)Nc1nc(-c2ccncc2)cs1 | 148
CC(C)(O)CNc1nc(Nc2ccnc(C(F)(F)F)c2)nc(-c2cccc(C(F)(F)F)n2)n1 | 87.8
CC(C)c1ccc(-c2cc(=O)c3ccccc3o2)cc1 | 96.1
CCN(c1cc(C#CCN2CCOCC2)cc(C(=O)NCc2c(C)cc(C)[nH]c2=O)c1C)[C@H]1CC[C@H](N(C)CCOC)CC1 | 103
O=C(O)/C=C/c1ccc(O)cc1 | 109
CN(C)C(=O)Oc1ccc[n+](C)c1 | 93.7
NCCc1ccc(O)c(O)c1 | 99.8
COc1ccc(Nc2ncnc3ccc(OC)cc23)cc1 | 89.6
COc1cc(OC2CCN(C)CC2)ccc1Nc1ncc2c(n1)n(C1CCCC1)c(=O)n2C | 84.4
COc1ccc(Cc2nc(O)c3c(C)nc([C@@H](CCCc4ccccc4)[C@@H](C)O)n3n2)cc1OC | 96.6
FC(F)(F)c1ccc(Nc2ncnc3cc(-c4ncccc4C(F)(F)F)ccc23)cc1 | 100
CCOC(=O)CC(=O)N1CCSC1COc1ccccc1OC (configuration not stated) | 97.6
COc1ccc(C[C@H]2NC[C@H](O)[C@H]2OC(C)=O)cc1 | 35.1
C=C[C@@]1(C)CC(=O)[C@]2(O)[C@@]3(C)[C@@H](O)CCC(C)(C)[C@@H]3[C@H](OC(=O)CCN(C)C)[C@H](OC(C)=O)[C@@]2(C)O1 [colforsin-daproate] | 106
CN1C2CCCC1CC(NC(=O)c1nn(C)c3ccccc13)C2 (configuration not stated) | 92.4
CCCC(=O)O[C@]1(C(=O)CO)CC[C@H]2[C@@H]3CCC4=CC(=O)CC[C@]4(C)[C@H]3[C@@H](O)C[C@@]21C [hydrocortisone-butyrate] | 95.8
COc1ccc(C(=O)N2CCCc3cc(C4=NNC(=O)SC4C)ccc32)cc1OC (configuration not stated) | 87.7
c1ccc2nc(N3CCNCC3)ccc2c1 | 96.1
C=CC(=O)Nc1cccc(Nc2nc(Nc3ccc(OCCOC)cc3)ncc2F)c1 | 97.2
OC(CCN1CCCCC1)(c1ccccc1)C1CC2C=CC1C2 (configuration not stated) | 101
CN(C)C(=O)N[C@H]1CC[C@H](CCN2CCN(c3cccc(Cl)c3Cl)CC2)CC1 | 97.9
CC1(C)CCC(C)(C)c2cc(C3(c4ccc(C(=O)O)cc4)OCCO3)ccc21 | 91.5

----------
Tested on: Calu-3
Assay: cell viability relative to DMSO; higher = less toxic
Settings: 72 h; 1 nM
measured-metric: cell viability (%)

molecule | measured-metric | meas-value
Cc1c(CN2CCN(C(=O)[C@H](C)O)CC2)sc2c(N3CCOCC3)nc(-c3cnc(N)nc3)nc12 [GDC-0980] | cell viability | 107
CC1(C)N=C(N)N=C(N)N1OCCCOc1cc(Cl)c(Cl)cc1Cl | cell viability | 100
CN(CCOc1ccc(-c2ccc3c(c2)OCO3)cc1C(C)(C)C)CC(=O)O | cell viability | 100
CCc1cccc(CC)c1NC(=O)CN(CC(=O)O)CC(=O)O [etifenin] | cell viability | 94.6
CC(C)=CCC/C(C)=C/CC/C(C)=C/C=C/C(C)=C/C(=O)O [peretinoin] | cell viability | 107
NCCCC[C@H](NC(=O)[C@@H]1CCCN1C(=O)[C@@H]1CSSC[C@H](N)C(=O)N[C@@H](Cc2ccc(O)cc2)C(=O)N[C@@H](Cc2ccccc2)C(=O)N[C@@H](CCC(N)=O)C(=O)N[C@@H](CC(N)=O)C(=O)N1)C(=O)NCC(N)=O [lypressin] | cell viability | 95.6
COc1cc(N2CCC(N(C)C)CC2)ccc1Nc1ncc(Cl)c(Nc2ccccc2P(C)(C)=O)n1 | cell viability | 97.9
CC(C)(C)/[N+]([O-])=C/c1ccc(S(=O)(=O)O)cc1S(=O)(=O)O [NXY-059] | cell viability | 91.3

----------
System: U2OS
Assay: relative viability EC50 (midpoint between 100% and the lowest measured viability); higher = less toxic
Details: 72 h

chemical-string | target-system | relative viability EC50
Cc1c(NC(=O)c2cccnc2)c(=O)n(-c2ccccc2)n1C | U2OS | > 10 µM
C=C(NC(=O)C(=C)NC(=O)c1csc(C2=N[C@@H]3c4csc(n4)[C@H]4NC(=O)c5csc(n5)[C@H]([C@](C)(O)[C@@H](C)O)NC(=O)[C@H]5CSC(=N5)/C(=C/C)NC(=O)[C@H]([C@@H](C)O)NC(=O)c5csc(n5)[C@]3(CC2)NC(=O)[C@H](C)NC(=O)C(=C)NC(=O)[C@H](C)NC(=O)[C@H]([C@@H](C)CC)N[C@@H]2C=Cc3c([C@H](C)O)cc(nc3[C@H]2O)C(=O)O[C@@H]4C)n1)C(N)=O | U2OS | > 10 µM
